src = the supplement of paper PMC6555819

Consider the following sequences; for each one, report its PBM binding z-score.
- Test system: PPARg:RXRa 90nM:30nM, anti-RXR (NR concentration 90 nM, RXRa partner concentration 30 nM)
- MEASUREMENT_DESCRIPTION: PBM binding z-score (relative to random genomic background probes); higher = stronger binding; sequences stand for … in GC…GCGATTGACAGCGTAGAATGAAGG
Give bare numbers.

Solved cases (5 shown):
# RESIDUE_SEQUENCE, MEASURED_METRIC, NUMERIC_READOUT
rows = [
    ("GCATAAAGGTAATACAAGGTGAAAGTCCGATTGT", "PBM binding z-score", 0.948),
    ("ATATGTAGGCTAGCTGGGGTCATTCAGACTAGGC", "PBM binding z-score", 2.83),
    ("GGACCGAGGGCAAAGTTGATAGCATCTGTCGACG", "PBM binding z-score", 4.42),
    ("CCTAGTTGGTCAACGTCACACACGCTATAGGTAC", "PBM binding z-score", 0.407),
    ("CCAACTAGGTCACGAAAGGTCAAAGTCGAATGAC", "PBM binding z-score", 8.18),
]

Report PBM binding z-score for every entry below.
1. CTACCAAGGTTAACAAGGTCGTTGATTACTATTC
2. TGAATGAGGTTATAAGATCAGGGAGCGTTGCAAA
3. ATATGTAGGTTATCGGGTCAATCAGTTTGCGCAT

1. 1.46
2. 1.55
3. 5.93

Report PBM binding z-score for every entry below.
1. ACTATTAGTTGAGACGAGTGCAACCGATAGGTTG
2. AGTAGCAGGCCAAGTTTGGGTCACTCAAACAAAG
3. TCTATTAGTTGATTTGGGCAACCGAAACAGCGGA
4. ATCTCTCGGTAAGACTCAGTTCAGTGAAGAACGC
5. AGAACGAGGTTAAGATCAGGGAAACAGAATACAT

1. -0.303
2. -0.201
3. 3.01
4. 0.251
5. 1.61

Report PBM binding z-score for every entry below.
1. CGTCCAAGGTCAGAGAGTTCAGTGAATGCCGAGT
2. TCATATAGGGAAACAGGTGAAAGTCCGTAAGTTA
3. TTACCAAGGAGAAGGTCGTTGATCCCTCTGTAGA
4. TGTCAAAGTTAAAAGGTAACGTAAGTATCCACAC
5. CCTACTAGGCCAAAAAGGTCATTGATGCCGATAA
6. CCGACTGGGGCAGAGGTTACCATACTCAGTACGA
7. GCTAGTTGGTCAGTAAACGGTCACACACCGGTCG
8. CCTACCGGGCCACGAAAGGTCATTGATTCAGTGA

1: 1.82; 2: 3.7; 3: 1.77; 4: 2.13; 5: 3.67; 6: 7.57; 7: 0.18; 8: 1.92

Report PBM binding z-score for every entry below.
1. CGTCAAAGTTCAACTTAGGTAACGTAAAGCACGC
2. CGAACTAGATCAGAACAGGACAGTGAAGGATGAT
3. GCTATTAGCTGAAAGGGCAACCGAATGATTCTCG

1: 4.66; 2: -0.125; 3: 2.07

Report PBM binding z-score for every entry below.
1. CGTCCAAGGTCAAACGTCAGTGAAGAGATGACGG
2. GCAGACAGGTGAAAAGCAGGTAACTCAGGGTGGC

1. 5.2
2. -0.253
